Each entry below carries its reported glycan array binding signal (z-score).
# assayed-target: Gal(b1-3)[Fuc(a1-4)]GlcNAc(b1-2)Man
# protocol: glycan array binding signal (z-score within array); higher = stronger binding
# applied-conditions: glycan notation: IUPAC condensed, linker removed
About 410 targets per protein were measured; listed, in parts, are those with the strongest signals and a random draw of the rest.
assay-readout: glycan array binding signal (z-score)

1) Si Bti9 1b-V5-his (Solanum lycopersicum) (protein) MQCNRGCDLALASFYVWRGSNLTLISEMFSTSIADIVSYNNRDNIPNQDSVIAGTRINIPFRCDCLNDGEVLGHAFPYRVKSGDTYDLVARNYSDLTTAQWMMKFNSYPENNIPNTVNLSVVVNCSCGNSDVSKDFGLFVTYPVRAEDNLTSVASAANVSEDIIRRYNPAAVSILDIGQGIIYIPGRDRNGNFPPLPTSTDGLSGGAKKGGRADPAFLYKVVINSKLEGKPIPNPLLGLDSTRTGHHHHHH | 1.83
2) Arath Fbox (Arabidopsis thaliana), NP_178341.1 (protein) EFTWGRKRRVKSESSPFDSFPEDCISYIISFTNPRDACVAATVSKTFESTVKSDIIWEKFLPADYESLIPPSRVFSSKKELYFSLCNDPVLFDDDKKSVWLEKASGKRCLMLSAMNLSIIWGDNPQYWQWIPIPESRFEKVAKLRDVCWFEIRGRTNTRVLSPRTRYSAYIVFKGVDKCYGFQNVAIEAAVGVVGQEPSRRLICFSEAIRRGRRNVVKPKQREDGWMEIELGEFFNDGGIMDNDEIEMSALETKQLNRKCGLIIQGIEIRPAKILAAAAASFLEQKLISEEDLNSAVDHHHHHH | 2.33
3) DC-ASGPR-short (Homo sapiens) (protein) MTRTYENFQYLENKVKVQGFKNGPLPLQSLLQRLRSGPCHLLLSLGLGLLLLVIICVVGFQNSKFQRDLVTLRTDFSNFTSNTVAEIQALTSQGSSLEETIASLKAEVEGFKQERQAVHSEMLLRVQQLVQDLKKLTCQVATLNNNASTEGTCCPVNWVEHQDSCYWFSHSGMSWAEAEKYCQLKNAHLVVINSREEQNFVQKYLGSAYTWMGLSDPEGAWKWVDGTDYATGFQNWKPGQPDDWQGHGLGGGEDCAHFHPDGRWNDDVCQRPYHWVCEAGLGQTSQESH | -0.106
4) HPL (Tachypleus tridentatus) (protein) MEDDCTCVTDRSLEGKLMKHPSTPAVYQILDGCRRLVPNPPTYNNIYKNWECIQSNILEKLLCKCDSLSNGAELIKGSGDTVYLLSNGVKRPIADPETFNGFCFDWNKIKTYSDIVINSLSTGPIIIIKHHHHHH | 1.71
5) Banana lectin (Musa acuminata) (protein) MNGAIKVGAWGGNGGSAFDMGPAYRIISVKIFSGDVVDAVDVTFTYYGKTETRHFGGSGGTPHEIVLQEGEYLVGMKGEFGNYHGVVVVGKLGFSTNKKSYGPFGNTGGTPFSLPIAAGKISGFFGRGGDFIDAIGVYLEP | -0.19
6) LBL-152 (Laetiporus bicolor), B0D650 (protein) MSNEYNPPLGIAFRLCGLASDRVLFSRVSPSPEVFHHPKSEVYPDQWFVAIPGSGQNAGCYAIKSKNTGKVLFSRMSPDPRVGHIDGDGKYPDNWFKFEAGSGKYAGYFRLRAVASDTVLVSRTSTGTDTQVINYPATSAKYDDQYFTILFDHHHHHH | -0.159
7) EULS2 M1 (Oryza sativa) (protein) MVYCRANPNYAMTARNGAVVLAPANPKDEYQHWIKDMRWSTSIKDEEGYPAFALVNKATGQAIKHSLGQSHPVRLVPYNPEVMDESVLWTESRDVGNGFRCIRMVNNIYLNFDAFHGDKYHGGVRDGTDIVLWKLCEGDNQRWKIQPYYILEQKLISEEDLNSAVDHHHHHH | 1.75
